molecular target: ACVR1B (human); assay: radiometric filter-binding kinase assay, Kinase HotSpot; settings: compound 0.5 µM; ATP 10 µM
Parameter: residual activity (%)
The reply should be a number in %, with the unit left off.

(Q) Recorded residual activity for Cc1cc(Nc2nc(-c3ccccc3)nc3ccccc23)n[nH]1 , please?
(A) 103

(Q) Recorded residual activity for CCCCc1c(-c2ccc(O)cc2)[nH]c2nccnc12 , please?
(A) 117

(Q) Recorded residual activity for O=C1NC(=O)c2cc(Nc3ccc(F)cc3)c(Nc3ccc(F)cc3)cc21 , please?
(A) 94.2

(Q) Recorded residual activity for O=c1cc(N2CCOCC2)oc2c(-c3ccccc3)cccc12 , please?
(A) 101

(Q) Recorded residual activity for N/C(=N\N=C/c1ccc(-c2cccc([N+](=O)[O-])c2)o1)N[N+](=O)[O-] , please?
(A) 101

(Q) Recorded residual activity for COc1cc2c(Nc3ccc(Br)cc3F)ncnc2cc1OCC1CCN(C)CC1 , please?
(A) 107

(Q) Recorded residual activity for N#C/C(=C1/Nc2ccccc2S1)c1ccnc(NCCc2cccnc2)n1 , please?
(A) 97.1

(Q) Recorded residual activity for c1ccc(-c2cnc(Nc3ccc(OCCN4CCCC4)cc3)s2)cc1 , please?
(A) 101

(Q) Recorded residual activity for Cn1cc(/C=C2\C(=O)Nc3ccc(S(N)(=O)=O)cc32)c2ccccc21 , please?
(A) 98.4

(Q) Recorded residual activity for O=c1c2ccccc2[nH]c(=S)n1CCN1CCC(=C(c2ccc(F)cc2)c2ccc(F)cc2)CC1 , please?
(A) 103

(Q) Recorded residual activity for COc1cc2ncnc(Nc3ccc(O)c(Br)c3)c2cc1OC , please?
(A) 105

(Q) Recorded residual activity for O=C(O)c1ccc2c3c1cccc3c(=O)n1c3ccccc3nc21 , please?
(A) 93.5

(Q) Recorded residual activity for O=c1[nH]c2ccccc2n1C1CCN(Cc2ccc(-c3nc4cc5[nH]cnc5cc4nc3-c3ccccc3)cc2)CC1 , please?
(A) 111

(Q) Recorded residual activity for COc1cc2c(N3CCN(C(=O)Nc4ccc(OC(C)C)cc4)CC3)ncnc2cc1OCCCN1CCCCC1 , please?
(A) 101

(Q) Recorded residual activity for CCOc1cc2ncnc(Nc3cccc(Br)c3)c2cc1OCC , please?
(A) 101

(Q) Recorded residual activity for O=c1c(-c2ccc(F)cc2)c(-c2ccncc2)[nH]n1-c1ccc(Cl)cc1 , please?
(A) 123

(Q) Recorded residual activity for FC(F)(F)c1ccc(/C=C/c2nc(COc3ccc(CCCCn4ccnn4)cc3)co2)cc1 , please?
(A) 92.8

(Q) Recorded residual activity for CCc1nc(-c2ccc(OC)cc2)[nH]c1-c1ccncc1 , please?
(A) 86.5

(Q) Recorded residual activity for Nc1ncnc2c1cnn2-c1ccccc1 , please?
(A) 99.4

(Q) Recorded residual activity for COc1cccc(-c2cc(=O)c3ccccc3o2)c1N , please?
(A) 92.5

(Q) Recorded residual activity for O=C(c1ccccc1)c1ccc(N2CCOCC2)cc1O , please?
(A) 104

(Q) Recorded residual activity for O=C1NC(=O)c2c1c1c3ccccc3[nH]c1c1[nH]c3cc(Br)ccc3c21 , please?
(A) 101

* * *

For each entry below, report its residual activity value.
molecular target: CLK3 (human); test: radiometric filter-binding kinase assay, Kinase HotSpot; settings: compound 0.5 µM; ATP 10 µM
The reply should be a number in %, with the unit left off.

(Q) # value lookup — system CLK3 (human), readout residual activity, item N#Cc1c(NC(=O)c2cccc3ccccc23)sc2c1CCCC2
(A) 99.3

(Q) # value lookup — system CLK3 (human), readout residual activity, item O=C1NC(=O)c2c1c1c3ccccc3[nH]c1c1[nH]c3cc(Br)ccc3c21
(A) 93.4

(Q) # value lookup — system CLK3 (human), readout residual activity, item N#C/C(=C1/Nc2ccccc2S1)c1ccnc(NCCc2cccnc2)n1
(A) 88.5

(Q) # value lookup — system CLK3 (human), readout residual activity, item Nc1ncnc2c1cnn2-c1ccccc1
(A) 96.1

(Q) # value lookup — system CLK3 (human), readout residual activity, item COc1cc2ncnc(Nc3ccc(O)c(Br)c3)c2cc1OC
(A) 54.1

(Q) # value lookup — system CLK3 (human), readout residual activity, item COc1cc2c(N3CCN(C(=O)Nc4ccc(OC(C)C)cc4)CC3)ncnc2cc1OCCCN1CCCCC1
(A) 93.4

(Q) # value lookup — system CLK3 (human), readout residual activity, item CCCCc1c(-c2ccc(O)cc2)[nH]c2nccnc12
(A) 121

(Q) # value lookup — system CLK3 (human), readout residual activity, item Cn1cc(/C=C2\C(=O)Nc3ccc(S(N)(=O)=O)cc32)c2ccccc21
(A) 81.4

(Q) # value lookup — system CLK3 (human), readout residual activity, item c1ccc(-c2cnc(Nc3ccc(OCCN4CCCC4)cc3)s2)cc1
(A) 94.3

(Q) # value lookup — system CLK3 (human), readout residual activity, item O=c1cc(N2CCOCC2)oc2c(-c3ccccc3)cccc12
(A) 107

(Q) # value lookup — system CLK3 (human), readout residual activity, item COc1cc2c(cc1OC)-c1[nH]nc(Nc3cccc(F)c3)c1C2
(A) 96.5

(Q) # value lookup — system CLK3 (human), readout residual activity, item COc1cccc(-c2cc(=O)c3ccccc3o2)c1N
(A) 95.4

(Q) # value lookup — system CLK3 (human), readout residual activity, item CCc1nc(-c2ccc(OC)cc2)[nH]c1-c1ccncc1
(A) 95.6

(Q) # value lookup — system CLK3 (human), readout residual activity, item Cc1cc(Nc2nc(-c3ccccc3)nc3ccccc23)n[nH]1
(A) 33.8

(Q) # value lookup — system CLK3 (human), readout residual activity, item COc1cc2c(Nc3ccc(Br)cc3F)ncnc2cc1OCC1CCN(C)CC1
(A) 100

(Q) # value lookup — system CLK3 (human), readout residual activity, item O=c1c2ccccc2[nH]c(=S)n1CCN1CCC(=C(c2ccc(F)cc2)c2ccc(F)cc2)CC1
(A) 101

(Q) # value lookup — system CLK3 (human), readout residual activity, item CCOc1cc2ncnc(Nc3cccc(Br)c3)c2cc1OCC
(A) 85.3

(Q) # value lookup — system CLK3 (human), readout residual activity, item O=c1[nH]c2ccccc2n1C1CCN(Cc2ccc(-c3nc4cc5[nH]cnc5cc4nc3-c3ccccc3)cc2)CC1
(A) 111

(Q) # value lookup — system CLK3 (human), readout residual activity, item O=C(c1ccccc1)c1ccc(N2CCOCC2)cc1O
(A) 90.2

(Q) # value lookup — system CLK3 (human), readout residual activity, item N/C(=N\N=C/c1ccc(-c2cccc([N+](=O)[O-])c2)o1)N[N+](=O)[O-]
(A) 97.7

(Q) # value lookup — system CLK3 (human), readout residual activity, item N#CCCc1ccc2c(c1)-c1[nH]c3ccc([N+](=O)[O-])cc3c1CC(=O)N2
(A) 108
